Tested on: S. pneumoniae ATCC 51916
Assay: MIC, S. pneumoniae
Format: cell-based
Details: S. pneumoniae
The reader will find reported MIC Spn52 values listed item by item below.

record-smiles: CCc1[nH]c2nc(Sc3cnc4c(N)nc(N)nc4c3)nc(OCCn3ccnc3)c2c1Cl.O=C(O)C(F)(F)F.O=C(O)C(F)(F)F
MIC Spn52: > 64 µg/mL
//
record-smiles: CCc1[nH]c2nc(Sc3cnc4c(N)nc(C)nc4c3)nc(N3CC(O)C3)c2c1Cl.O=C(O)C(F)(F)F
MIC Spn52: ≤ 0.5 µg/mL
//
record-smiles: CCc1[nH]c2nc(Oc3cccnc3)nc(Oc3cccnc3)c2c1C(F)(F)F.O=C(O)C(F)(F)F
MIC Spn52: > 64 µg/mL
//
record-smiles: CCc1[nH]c2nc(SC)nc(CCCNCCN3CCOCC3)c2c1Br
MIC Spn52: > 64 µg/mL

###

Tested on: S. aureus ATCC 13709
Test: MIC, antibacterial potency, S. aureus
Type: cell-based
Conditions: S. aureus (SA); in µg/mL
attribute-measured: MIC, SA

record-smiles: CCc1[nH]c2nc(Sc3ccc4nc(N)n[n+]([O-])c4c3)nc(N3CC[C@@H](N)C3)c2c1Cl
result: <=0.5

record-smiles: CCc1[nH]c2nc(Oc3ccc4sc(C)nc4c3)nc(Oc3cccc(C#N)c3)c2c1Br
result: <=0.5

record-smiles: CCc1[nH]c2nc(Sc3cnc4nccnc4c3)nc(N3C[C@@H]4[C@@H](N)[C@@H]4C3)c2c1Cl
result: <=0.5

record-smiles: CCc1[nH]c2nc(Oc3cncc(C#N)c3)nc(Oc3cccc(C#N)c3)c2c1Br.O=C(O)C(F)(F)F
result: <=0.5

record-smiles: CCc1[nH]c2nc(Sc3cnc4cccnc4c3)nc(N3C[C@H](N)[C@H](C(=O)N4CC[C@@H](N)C4)C3)c2c1Cl
result: >64

record-smiles: CCc1[nH]c2nc(Sc3cnc4nccnc4c3)nc(N3C[C@H](N)C[C@@H]3CO)c2c1Cl
result: >64

record-smiles: CCc1[nH]c2nc(Oc3cncc(C#N)c3)nc(Oc3cncnc3)c2c1Br
result: <=0.5

record-smiles: CCc1[nH]c2nc(Oc3cccc(S(C)(=O)=O)c3)nc(Oc3ccc4nccnc4c3)c2c1Br
result: <=0.5

###

Tested on: S. pneumoniae ATCC 51916
Assay: MIC, S. pneumoniae
Format: cell-based
Settings: S. pneumoniae

record-smiles: CCc1[nH]c2nc(Sc3cnc4nccnc4c3)nc(N3CC(Oc4ccc(C(F)(F)F)cc4)C3)c2c1Cl.O=C(O)C(F)(F)F
MIC Spn52: > 64 µg/mL
--
record-smiles: CCc1[nH]c2nc(Sc3cnc4c(C(C)C)nc(N)nc4c3)nc(OCCn3ccnc3)c2c1Cl.O=C(O)C(F)(F)F
MIC Spn52: > 64 µg/mL
--
record-smiles: CCc1[nH]c2nc(Sc3nc(C(=O)O)cs3)nc(NCCCn3ccnc3)c2c1Cl
MIC Spn52: > 64 µg/mL

###

Tested on: S. pneumoniae ATCC 51916
Assay: MIC, S. pneumoniae
Assay type: cell-based
Details: S. pneumoniae
In this section we review reported MIC Spn52 values for a set of compounds.

compound: CCc1[nH]c2nc(Sc3nc(C(=O)O)cs3)nc(NCCCNS(C)(=O)=O)c2c1Cl [700,342]
MIC Spn52: > 64 µg/mL

compound: CCc1[nH]c2nc(Sc3nc(C(=O)O)cs3)nc(N3CCNCC3)c2c1Cl.O=C(O)C(F)(F)F [700,398]
MIC Spn52: > 64 µg/mL

compound: CCc1[nH]c2nc(Sc3nc(C(=O)O)cs3)nc(NC[C@H](C)O)c2c1Cl [700,322]
MIC Spn52: > 64 µg/mL

compound: CCc1[nH]c2nc(Sc3nc(C(=O)O)cs3)nc(N3CCN(C(C)=O)CC3)c2c1Cl.O=C(O)C(F)(F)F [700,356]
MIC Spn52: > 64 µg/mL

compound: CCc1[nH]c2nc(Sc3cnc4nccnc4c3)nc(N3CC4C(C3)C4NC(=O)OC(C)(C)C)c2c1Cl.O=C(O)C(F)(F)F.O=C(O)C(F)(F)F (centres unmarked) [700,608]
MIC Spn52: 2 µg/mL

compound: CCc1[nH]c2nc(Sc3cnc4nccnc4c3)nc(N3CC(NC(=O)CN4CCNCC4)C3)c2c1Cl.O=C(O)C(F)(F)F.O=C(O)C(F)(F)F [700,504]
MIC Spn52: 32 µg/mL

compound: CCOc1nc(Sc2ccc(NCCCOC)nn2)nc2[nH]c(CC)c(Cl)c12 [700,326]
MIC Spn52: 32 µg/mL

compound: CCOc1nc(Sc2nc(C(=O)O)c(C(C)C)s2)nc2[nH]c(CC)c(Br)c12 [700,303]
MIC Spn52: 32 µg/mL
